Experiment: Solubility to alcohol (methanol), visual observation
Format: physicochemical
Design: key: ◯: The compound is perfectly dissolved in methanol, and the resultant liquid contains no solid material.; X: The compound is imperfectly dissolved in methanol and the resultant liquid contains a solid material or is opaque (i.e., is not transparent)
Conditions: methanol solution, solid content 40% by weight, one hour at room temperature, visual
readout.type: Solubility to methanol, solid content 40% by weight

# annotated cases, reported Solubility to methanol, solid content 40% by weight shown
| compound | measured.value |
| --- | --- |
| CCc1ccc(N(c2ccc(CCO)cc2)c2ccc(CCO)cc2)cc1C [Comp. compound (8)] | X |
| Cc1ccc(N(c2ccc(C)cc2)c2ccc(C(C)(c3ccc(O)cc3)c3ccc(O)cc3)cc2)cc1 [Comp. compound (6)] | X |
| Cc1ccc(N(c2ccc(C)cc2)c2ccc(C=C(c3ccc(OCCO)cc3)c3ccc(OCCO)cc3)cc2)cc1 [Comp. compound (9)] | X |
| Cc1ccc(N(c2ccc(C)cc2)c2ccc(C=C(c3ccc(OCC(O)CO)cc3)c3ccc(OCC(O)CO)cc3)cc2)cc1 (centres unmarked) [Compound of Ex. 1] | ◯ |

# ---- query compound ----
IN: Let me know recorded Solubility to methanol, solid content 40% by weight for Oc1cccc(N(c2ccccc2)c2ccc(-c3ccc(N(c4ccccc4)c4cccc(O)c4)cc3)cc2)c1 [Comp. compound (7)] , thanks.
OUT: X
